Data origin, for the record: PubChem BioAssay AID1159580

- MEASUREMENT_PROTOCOL: chemical genetic growth profiling, strain panel (AID 1159580);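 note: tested at 20 µM; growth read once vehicle control cultures reached saturation at 30 °C; 1 = growth at the plate median or of vehicle wells; lower values mean less growth of the strain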
- CONDITION_PARAMETERS: S. cerevisiae deletion strains, growth OD, locus YER155C, strain BEM2 (second series), active compounds read low
Hit rate of the full screen: of about 5,500 compounds, about 2,000 (36%) were called active. Not shown: some 18% with an inconclusive outcome. This is one part of the list.
Would you kindly list normalized growth for each of these compounds?
// no unit string in output, number only

According to the records, this compound C[C@H]1O[C@H](O[C@H]2[C@H](O)[C@@H](O)[C@@H](O[C@H]3[C@H](O)[C@@H](O)C(O)O[C@@H]3CO)O[C@@H]2CO)[C@H](O)[C@@H](O)[C@@H]1N[C@H]1C=C(CO)[C@@H](O)[C@H](O)[C@H]1O (stereo not given in full) displays normalized growth of 0.977

According to the records, this compound COc1ccc(-c2cc(=O)c3c(OC)c(OC)c(OC)c(OC)c3o2)cc1OC displays normalized growth of 0.996

According to the records, this compound CC(C)c1cccc(O)c(=O)c1 displays normalized growth of 0.0927

According to the records, this compound CC(C)(C)NCC(O)COc1cccc2c1C[C@H](O)[C@H](O)C2 (stereo not given in full) displays normalized growth of 0.997

According to the records, this compound CCCCCC(O)C1C(=O)OC(C)C(O)/C=C/C=C/C=C/C=C/C=C(\C)C(O)CC(O)CC(O)CC(O)CC(O)CC(O)CC1O (stereo not given) displays normalized growth of 0.976

----------
- MEASUREMENT_PROTOCOL: chemical genetic growth profiling, strain panel (AID 1159580);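 note: tested at 20 µM; growth read once vehicle control cultures reached saturation at 30 °C; 1 = growth at the plate median or of vehicle wells; lower values mean less growth of the strain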
- CONDITION_PARAMETERS: S. cerevisiae deletion strains, growth OD, locus YHR079C, strain IRE1, active compounds read low
About 2,000 (36%) of roughly 5,500 compounds were called active. Roughly 18% stayed inconclusive and do not appear here. The list shows a part of the results.
Would you kindly list normalized growth for each of these compounds?

According to the records, this compound CC(=O)O[C@@H]1CC2C(C)(CC[C@H](O)C2(C)C)C2CC[C@]3(C)C(=CC(=O)O[C@H]3c3ccoc3)C21C (some centres not stated) displays normalized growth of 0.994 (inactive)

According to the records, this compound O=C(CCCN1CCN(c2ccccn2)CC1)c1ccc(F)cc1 displays normalized growth of 1.04 (inactive)

According to the records, this compound NCCCN displays normalized growth of 0.976 (inactive)

According to the records, this compound COC(=O)C[C@H]1C(C)(C)[C@@H](O)[C@@H]2CC3=C4CC(O)O[C@@H](c5ccoc5)[C@]4(C)CCC3[C@@]1(C)C2=O (some centres not stated) displays normalized growth of 1.01 (inactive)

According to the records, this compound C[C@H]1[C@H](C)CC[C@]2(C(=O)O)CC[C@]3(C)C(=CCC4[C@@]5(C)C[C@@H](O)[C@H](O)[C@@](C)(CO)C5[C@H](O)C[C@]43C)[C@H]12 (some centres not stated) displays normalized growth of 0.979 (inactive)

According to the records, this compound CC(=O)NCCc1ccc(O)c(-c2c(O)c(O)c3c(c2O)C(=O)c2c(cc(O)c(C(=O)O)c2C(=O)O)C3=O)c1 displays normalized growth of 1.01 (inactive)

According to the records, this compound C[C@H]1OC(O[C@H]2[C@@H](O)CC(O[C@H]3[C@@H](O)C[C@H](O[C@H]4CC[C@]5(C)C6CC[C@]7(C)[C@@H](C8=CC(=O)OC8)[C@@H](O)C[C@]7(O)[C@@H]6CC[C@@H]5C4)O[C@@H]3C)O[C@@H]2C)C[C@H](O)C1O (some centres not stated) displays normalized growth of 1.03 (inactive)

According to the records, this compound O=C(O/N=C1/CCCc2[nH]c3ccccc3c21)C1CCCCC1 displays normalized growth of 0.963 (inactive)

According to the records, this compound CC1(C)[C@@H]2CC[C@@]1(C)C(=O)C2 displays normalized growth of 1.05 (inactive)

According to the records, this compound FC(F)(F)Sc1ccc(OCc2n[nH]c(=S)n2-c2ccccc2)cc1 displays normalized growth of 0.896 (inactive)

According to the records, this compound CC1=C2C(O)C(=O)OC3CC4C(C)(C)C(=O)C=C[C@]4(C)C(CC1)[C@]23C (some centres not stated) displays normalized growth of 1.02 (inactive)

According to the records, this compound COC1C(O)C(C)OC(O[C@H]2CC[C@]3(C=O)C4C(CC[C@]3(O)C2)[C@@]2(O)CC[C@H](C3=CC(=O)OC3)[C@@]2(C)C[C@H]4O)C1O (some centres not stated) displays normalized growth of 1.08 (inactive)

According to the records, this compound O=C(O/N=C1/CCCc2[nH]c3ccccc3c21)c1ccc(Cl)cc1Cl displays normalized growth of 0.988 (inactive)

According to the records, this compound C[C@@H]1CC[C@@]23CCC4(C)[C@@](C=CC5[C@@]6(C)CC[C@H](O)C(C)(C)C6CC[C@]54C)(OC2=O)C3[C@H]1C (some centres not stated) displays normalized growth of 0.999 (inactive)

According to the records, this compound C/C=C(\C)C(=O)O[C@@H]1c2c(ccc3ccc(=O)oc23)OC(C)(C)[C@@H]1OC(C)=O displays normalized growth of 1.01 (inactive)

According to the records, this compound N#Cc1c(Cl)cccc1Cl displays normalized growth of 0.965 (inactive)

According to the records, this compound O=C1CC2(CCCC2)CC(=O)N1CCCCN1CCN(c2ncccn2)CC1 displays normalized growth of 1 (inactive)
